# SUBJECT_OF_TEST: BACE-1 enzyme (Homo sapiens)
# Construct: purchased R & D Systems 931AS
# Sequence (P56817 46-457 limits assumed): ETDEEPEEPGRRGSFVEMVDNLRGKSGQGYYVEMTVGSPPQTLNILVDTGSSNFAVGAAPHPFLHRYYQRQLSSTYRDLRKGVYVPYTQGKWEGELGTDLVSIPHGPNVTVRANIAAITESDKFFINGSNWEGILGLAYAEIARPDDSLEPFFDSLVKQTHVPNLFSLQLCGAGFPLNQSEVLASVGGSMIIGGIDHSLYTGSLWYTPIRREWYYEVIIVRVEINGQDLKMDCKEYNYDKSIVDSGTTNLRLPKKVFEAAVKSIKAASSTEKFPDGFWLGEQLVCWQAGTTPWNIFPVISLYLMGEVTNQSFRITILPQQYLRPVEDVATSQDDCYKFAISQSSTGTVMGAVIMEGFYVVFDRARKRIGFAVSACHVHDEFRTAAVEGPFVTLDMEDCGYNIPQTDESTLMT
# PROTOCOL_SUMMARY: BACE Fluorescence Resonance Energy Transfer (FRET) Assay
# Format: biochemical
# REPORTED_CONDITIONS: pH 4-4.5, 30 min pre-incubation, about 1.5 hours reaction
Assign IC50 to each entry below.
Answers are plain numbers, in µM.

Provide IC50 values for the following items, in order.
1. CCN(C)Cc1ccc2nc(C(=O)Nc3nc4cc(-c5cccc(C(F)(F)F)c5)ccc4[nH]3)cn2c1
2. CN(C)c1cc(F)cn2cc(C(=O)Nc3nc4cc(-c5cc(F)cc(Cl)c5)ccc4[nH]3)nc12
3. CN(C)Cc1ccn2cc(C(=O)Nc3nc4cc(-c5cccc(C(F)(F)F)c5)ccc4[nH]3)nc2c1

Completion:
1: 0.69; 2: 1.01; 3: 0.9

Provide IC50 values for the following items, in order.
1. CCCc1cccc2nc(C(=O)Nc3nc4cc(-c5cccc(OC(F)(F)F)c5)ccc4[nH]3)cn12
2. Cc1cccc2nc(C(=O)Nc3nc4cc(C5=CCCCC5)ccc4[nH]3)cn12
3. Cc1cccc2nc(C(=O)Nc3nc4cc(-c5cnn(C)c5)ccc4[nH]3)cn12
4. Cc1ccc2nc(C(=O)Nc3nc4cc(OCc5ccc(C(F)(F)F)cc5)ccc4[nH]3)cn2c1
5. CN(C)CCOc1cc(Cl)cn2cc(C(=O)Nc3nc4cc(-c5cc(F)cc(Cl)c5)ccc4[nH]3)nc12
6. O=C(Nc1nc2cc(-c3cccc(C(F)(F)F)c3)ccc2[nH]1)c1cn2c(-c3ccncc3)cccc2n1

Completion:
0.28
1.45
3.06
0.45
0.34
0.15

Prompt: # query: IC50 of entry Cc1cccc2nc(C(=O)Nc3nc4cc(-c5ccc(C6CCCCC6)cc5)ccc4[nH]3)cn12
Completion: 0.3
